- STUDY_TARGET: UniProtKB P07550
- METHOD: Ratio of Ki for Nb69-fused beta2 adrenergic receptor (unknown origin) to Ki for Nb80-fused beta2 adrenergic receptor (unknown origin)
I'd be grateful if you could share measured Ratio Ki for these entries.

Count: 2. Required value per item: Ratio Ki.
1. CNCc1ccc(-c2nccs2)cc1
2. Cc1ccccc1C(C)NCc1ccc(-c2ncccn2)cc1 (configuration not stated)

1. 11
2. 61

Count: 2. Required value per item: Ratio Ki.
1. CC1(NCc2cc3ccccc3s2)COC1
2. COc1ccc2c(c1)c(CCNCCCc1cccc(C(F)(F)F)c1)cn2C

> 10
2.4

* * *

I'd be grateful if you could share measured Ratio Ki for these entries.
- STUDY_TARGET: Beta-2 adrenergic receptor (Homo sapiens, UniProt P07550)
- Sequence (P07550 whole entry, looked up, the tested form may be a part): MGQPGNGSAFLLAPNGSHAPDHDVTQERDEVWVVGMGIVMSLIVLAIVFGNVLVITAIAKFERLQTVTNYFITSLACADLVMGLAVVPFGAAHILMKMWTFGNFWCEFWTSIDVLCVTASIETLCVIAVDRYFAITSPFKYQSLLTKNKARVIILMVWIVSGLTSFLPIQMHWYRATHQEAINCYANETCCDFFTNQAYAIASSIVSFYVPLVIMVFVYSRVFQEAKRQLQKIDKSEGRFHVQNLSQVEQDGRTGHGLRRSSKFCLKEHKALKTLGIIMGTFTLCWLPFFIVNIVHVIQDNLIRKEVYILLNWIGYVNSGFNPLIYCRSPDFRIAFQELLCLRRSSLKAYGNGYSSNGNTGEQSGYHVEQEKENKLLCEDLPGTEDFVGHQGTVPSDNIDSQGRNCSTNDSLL
- METHOD: Ratio of Ki for Nb69-fused beta2 adrenergic receptor (unknown origin) to Ki for Nb80-fused beta2 adrenergic receptor (unknown origin)

[[record]]
compound = "CC(N)c1ccc(Cl)cc1 (stereo not drawn)"
result = "> 61"

[[record]]
compound = "NCc1ccc(-c2ncccn2)cc1"
result = "> 91"


# context switch: different compound, same Ratio Ki
The reported Ratio Ki of the compound OCC(NCc1ccc(-c2nccs2)cc1)c1ccco1 (stereo not drawn) was > 51

* * *

- STUDY_TARGET: Beta-2 adrenergic receptor (Homo sapiens)
- METHOD: Displacement of [3H]-DHA from Nb69-fused beta2 adrenergic receptor (unknown origin) expressed in Sf9 cell membranes after 2 hrs by microbeta scintillation counting method
I'd be grateful if you could share measured Ki for these entries.

Count: 3. Required value per item: Ki.
1. OCC(NCc1ccc(-c2nccs2)cc1)c1ccco1 (stereo not drawn)
2. NCc1ccc(-c2ncccn2)cc1
3. CC1(NCc2cc3ccccc3s2)COC1

["> 1 mM", "> 1 mM", "> 1 mM"]

* * *

- STUDY_TARGET: UniProt P07550
- METHOD: Ratio of Ki for Nb69-fused beta2 adrenergic receptor (unknown origin) to Ki for Nb80-fused beta2 adrenergic receptor (unknown origin)
I'd be grateful if you could share measured Ratio Ki for these entries.
Give bare numbers.

Count: 3. Required value per item: Ratio Ki.
1. COc1ccc2c(c1)c(CCNCc1cc(OC(F)(F)F)ccc1F)cn2C
2. CNCc1cc2ccccc2s1
3. C[C@H](CC(F)(F)F)NCc1ccc(-c2nccs2)cc1

1. 1
2. 8.6
3. 7.5
